Parameter: melting point. Scope: all listed entries.

Example compounds with recorded melting point:
# input.smiles, endpoint.name, measured.value
rows = [
    ("O=C(NCC12CC3CC(CC(C3)C1)C2)c1cc(-c2cccnc2N2CC(C(=O)O)C2)ccc1Cl", "melting point", "145 to 150 °C"),
    ("O=C(NCC12CC3CC(CC(C3)C1)C2)c1cc(-c2ncccc2OCc2nnn[nH]2)ccc1Cl", "melting point", "122 to 126 °C"),
    ("O=C(NCC12CC3CC(CC(C3)C1)C2)c1cc(-c2ccc(F)cc2C(=O)O)ccc1Cl", "melting point", "126 to 128 °C"),
    ("O=C(NCC12CC3CC(CC(C3)C1)C2)c1cc(-c2cccnc2N2CCC[C@H]2C(=O)O)ccc1Cl", "melting point", "121 to 125 °C"),
    ("O=C(NCC12CC3CC(CC(C3)C1)C2)c1cc(-c2cc(F)c(F)cc2C(=O)O)ccc1Cl", "melting point", "121 to 125 °C"),
]

Exercise: Give me measured melting point, please, for this compound: O=C(O)CNc1ncccc1-c1ccc(Cl)c(C(=O)NCC23CC4CC(CC(C4)C2)C3)c1
Solution: 160 to 164 °C

Exercise: Name the recorded melting point of the item O=C(NCC12CC3CC(CC(C3)C1)C2)c1cc(-c2cc(F)ccc2C(=O)O)ccc1Cl in your answer.
Solution: 120 to 124 °C

Exercise: Give the value of melting point reported for the following: O=C(O)c1cc(C(F)(F)F)cc(-c2ccc(Cl)c(C(=O)NCC34CC5CC(CC(C5)C3)C4)c2)n1
Solution: 220 to 225 °C

Numbers sourced from patent US20080153850A1.
